biological target: USP7 (Homo sapiens, UniProt Q93009); construct: The USP7 construct was PCR amplified and cloned into a pFLAG-CMV-6a vector (Sigma-Aldrich) with an N-terminal FLAG tag; made in house; host or cells: HEK293T; assay: USP7 biochemical IC50 assay (fluorescence polarisation, TAMRA labelled peptide linked to ubiquitin via an iso-peptide bond); conditions: 30 min pre-incubation of enzyme and compound, read after 2 hr incubation at room temperature, read-out: IC50 range
Sequence (Q93009 whole entry): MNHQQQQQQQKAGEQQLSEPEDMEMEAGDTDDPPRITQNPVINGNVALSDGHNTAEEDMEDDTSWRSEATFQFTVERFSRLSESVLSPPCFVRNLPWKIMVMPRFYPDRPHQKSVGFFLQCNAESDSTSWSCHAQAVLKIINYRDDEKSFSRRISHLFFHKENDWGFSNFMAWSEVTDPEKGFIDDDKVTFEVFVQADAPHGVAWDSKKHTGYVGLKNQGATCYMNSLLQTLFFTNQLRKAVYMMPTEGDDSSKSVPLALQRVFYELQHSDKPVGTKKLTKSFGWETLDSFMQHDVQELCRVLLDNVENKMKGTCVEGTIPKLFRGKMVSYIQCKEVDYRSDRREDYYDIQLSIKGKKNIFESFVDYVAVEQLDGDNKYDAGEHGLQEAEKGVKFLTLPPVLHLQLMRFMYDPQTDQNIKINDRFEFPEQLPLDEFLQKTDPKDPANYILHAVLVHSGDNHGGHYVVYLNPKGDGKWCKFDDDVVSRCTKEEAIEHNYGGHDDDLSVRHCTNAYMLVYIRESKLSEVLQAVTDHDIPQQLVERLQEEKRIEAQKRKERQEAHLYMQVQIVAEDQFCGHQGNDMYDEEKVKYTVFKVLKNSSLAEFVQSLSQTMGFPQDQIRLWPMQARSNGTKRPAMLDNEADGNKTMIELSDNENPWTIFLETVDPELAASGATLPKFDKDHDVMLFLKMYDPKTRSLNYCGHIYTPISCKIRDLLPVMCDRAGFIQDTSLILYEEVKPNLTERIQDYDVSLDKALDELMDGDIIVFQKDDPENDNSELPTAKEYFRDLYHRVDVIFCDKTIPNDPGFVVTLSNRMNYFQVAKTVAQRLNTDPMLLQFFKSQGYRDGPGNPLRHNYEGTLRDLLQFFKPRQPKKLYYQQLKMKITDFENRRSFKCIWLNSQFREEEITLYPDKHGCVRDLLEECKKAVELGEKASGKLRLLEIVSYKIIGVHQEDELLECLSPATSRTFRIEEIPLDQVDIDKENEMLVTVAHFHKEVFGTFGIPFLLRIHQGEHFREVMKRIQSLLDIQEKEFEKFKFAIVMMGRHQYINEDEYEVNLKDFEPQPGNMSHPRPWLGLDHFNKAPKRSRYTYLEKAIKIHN
pIC50: −log10 of the molar value.
Recorded Endpoint: pIC50

{"Compound": "N#CN1Cc2cccc(NC(=O)c3ccc(CNC(=O)OCc4ccccc4)cc3)c2C1 [Example 91]", "pIC50": "5.00 to 6.00"}

Value of measured pIC50 for the entry CN1CCOC(CNc2nc3c(c(-c4ccccc4)n2)CN(C#N)C3)C1 (single isomer, unassigned) [Example 153] : > 6.00

###

Attribute: pIC50
molecular target: USP7 (Homo sapiens, UniProt Q93009); construct: The USP7 construct was PCR amplified and cloned into a pFLAG-CMV-6a vector (Sigma-Aldrich) with an N-terminal FLAG tag; made in house; host or cells: HEK293T; assay: USP7 biochemical IC50 assay (fluorescence polarisation, TAMRA labelled peptide linked to ubiquitin via an iso-peptide bond); conditions: 30 min pre-incubation of enzyme and compound, read after 2 hr incubation at room temperature, read-out: IC50 range
pIC50: −log10 of the molar value.

Value of measured pIC50 for the entry "COc1ccc(C#N)c(-c2cccc3c2CN(C#N)C3)n1" : 4.52 to 5.00

Value of measured pIC50 for the entry "CN(C)CC(=O)Nc1cc2c(c(-c3ccc(C#N)cc3)c1)CN(C#N)C2" : > 6.00

Value of measured pIC50 for the entry "CN(C)c1cc2c(c(-c3ccc(C#N)cc3)c1)CN(C#N)C2" : > 6.00

Value of measured pIC50 for the entry "CC(C)OC(=O)NCc1cc2c(c(-c3ccc(C#N)cc3)c1)CN(C#N)C2" : 5.00 to 6.00

Value of measured pIC50 for the entry "N#CN1Cc2cccc(NC(=O)c3cc(-c4cnccn4)[nH]n3)c2C1" : 5.00 to 6.00

Value of measured pIC50 for the entry CC(=O)Nc1cccc(-c2nc(NCC3CN(C)CCO3)nc3c2CN(C#N)C3)c1 (stereo not drawn) : 5.00 to 6.00

Value of measured pIC50 for the entry "CC(C)Nc1cc2c(c(-c3ccc(C#N)cc3)c1)CN(C#N)C2" : 5.00 to 6.00

Value of measured pIC50 for the entry "CS(=O)(=O)CCNc1nc2c(c(-c3ccccc3)n1)CN(C#N)C2" : 5.00 to 6.00

Value of measured pIC50 for the entry CN1CCCC(CNc2cc3c(c(-c4ccccc4)c2)CN(C#N)C3)C1 (stereo not drawn) : > 6.00

Value of measured pIC50 for the entry "N#CN1Cc2cccc(-c3cccc4c3NC(=O)C4)c2C1" : 5.00 to 6.00

###

biological target: USP7 (Homo sapiens); construct: The USP7 construct was PCR amplified and cloned into a pFLAG-CMV-6a vector (Sigma-Aldrich) with an N-terminal FLAG tag; made in house; host or cells: HEK293T; experiment: USP7 biochemical IC50 assay (fluorescence polarisation, TAMRA labelled peptide linked to ubiquitin via an iso-peptide bond); conditions: 30 min pre-incubation of enzyme and compound, read after 2 hr incubation at room temperature, read-out: IC50 range
pIC50: −log10 of the molar value.
Recorded Endpoint: pIC50

{"Compound": "CN1CC(C(=O)Nc2cc3c(c(-c4ccc(C#N)cc4)c2)CN(C#N)C3)CCC1=O (stereo not drawn)", "Observed Measurement": "5.00 to 6.00"}

pIC50 for USP7 (Homo sapiens) with input "N#Cc1cccc(F)c1-c1cccc2c1CN(C#N)C2" equals 5.00 to 6.00

pIC50 for USP7 (Homo sapiens) with input CN1CCOC(CNc2nc3c(c(-c4ccccc4)n2)CN(C#N)C3)C1 (stereo not drawn) [Example 124] equals 5.00 to 6.00

pIC50 for USP7 (Homo sapiens) with input "Cc1[nH]ncc1-c1nc2c(c(N3CCc4ccccc4C3)n1)CN(C#N)C2" equals 5.00 to 6.00

pIC50 for USP7 (Homo sapiens) with input "CS(=O)(=O)CCc1cc2c(c(-c3ccccc3)c1)CN(C#N)C2" equals 5.00 to 6.00

pIC50 for USP7 (Homo sapiens) with input "N#CN1Cc2cccc(N3C(=O)CCCC3=O)c2C1" equals 4.52 to 5.00
